Sourced from patent US20250152723A1

Tested on: SK-BR-3 breast cancer cell (HER2+)
MEASUREMENT PROTOCOL: In vitro anti-proliferative study (NBB staining, 6 days)
Assay type: cell-based
CONDITIONS USED: SK-BR-3 (HER2+), 6 days incubation, mean±SD
MEASURED PARAMETER: IC50 (nM)
One number for each entry, in nM.

Ask | Assign IC50 to the following record: `COc1ccc(CCc2cc(OC)c(OC)c(OC)c2)cc1O`
Reply | 24.1

###

Tested on: MDA-MB-231 breast cancer cell (HER2−)
MEASUREMENT PROTOCOL: In vitro anti-proliferative study (NBB staining, 6 days)
Assay type: cell-based
CONDITIONS USED: MDA-MB-231 (HER2−), 6 days incubation, mean±SD
MEASURED PARAMETER: pIC50
Give bare numbers, as −log10 of the molar value.

Ask | Provide measured pIC50 value, entry: `COc1ccc(CCc2cc(OC)c(OC)c(OC)c2)cc1O`
Reply | 7.67
